- Test system: 521955-158-R2-J5-PDC complex spheroid growth
- Assay text: Anticancer human tumor 521955-158-R2-J5-PDC patient-derived pancreatic carcinoma cell line growth inhibition [AhR]
- Experimental setup: second compound 0.1 µM; first compound 0.001 µM; stronger effect = lower value
Property: viability, T/C (%)
Numbers only, in %.

* Cn1ncnc1C1c2n[nH]c(=O)c3cc(F)cc(c23)NC1c1ccc(F)cc1 (stereo not drawn) + Cc1ccccc1N=Nc1ccc(NC(=O)c2ccnn2C)c(C)c1 | 115
* CC[C@@]1(O)C(=O)OCc2c1cc1n(c2=O)Cc2cc3c(CN(C)C)c(O)ccc3nc2-1 + Cc1ccccc1N=Nc1ccc(NC(=O)c2ccnn2C)c(C)c1 | 79.3

// moving on: another record for viability, T/C
Recorded viability, T/C for Cn1ncnc1C1c2n[nH]c(=O)c3cc(F)cc(c23)NC1c1ccc(F)cc1 (stereo not drawn) + Cc1cncc(-c2nc(NCCc3c[nH]c4ccccc34)c3ncn(C(C)C)c3n2)c1 with 521955-158-R2-J5-PDC complex spheroid growth, please?
106

----------
- Test system: 521955-158-R2-J5-PDC complex spheroid growth
- Assay text: Anticancer human tumor 521955-158-R2-J5-PDC cell line growth inhibition [AhR]
- Experimental setup: curve of first compound; second compound 10 µM
Assignment: determine reported pIC50 for the given compounds.
Give bare numbers, as −log10 of the molar value.

Please review the following examples before continuing.
* COc1cc(Nc2ncc3c(n2)-c2ccc(Cl)cc2C(c2c(F)cccc2OC)=NC3)ccc1C(=O)O + CC(CO)NC(=O)c1cc(-c2ccc(Cl)cc2)nn(-c2cnn(C)c2)c1=O | 5.93
* CC[C@@]1(O)C(=O)OCc2c1cc1n(c2=O)Cc2cc3c(CN(C)C)c(O)ccc3nc2-1 + CC(CO)NC(=O)c1cc(-c2ccc(Cl)cc2)nn(-c2cnn(C)c2)c1=O | 7.70
* CC1COCCN1c1cc(-c2ccnn2C)c2ccnc(-c3ccn[nH]3)c2n1 (stereo not given) + Cc1cncc(-c2nc(NCCc3c[nH]c4ccccc34)c3ncn(C(C)C)c3n2)c1 | 7.05

// moving on: another record for pIC50
Which pIC50 value belongs to NS(=O)(=O)OCC1CC(n2ccc3c(NC4CCc5ccccc54)ncnc32)CC1O (stereo not given) + CC(CO)NC(=O)c1cc(-c2ccc(Cl)cc2)nn(-c2cnn(C)c2)c1=O ?
6.63

----------
- Test system: 521955-158-R2-J5-PDC complex spheroid growth
- Assay text: Anticancer human tumor 521955-158-R2-J5-PDC cell line growth inhibition [AhR]; active = viability on the fitted dose curve at most 10% of control; inactive = the rest
- Experimental setup: second compound 0.1 µM; first compound 0.03 µM
API: response.call in active, inactive

Answered cases to consult:
- CCc1c2c(nc3ccc(O)cc13)-c1cc3c(c(=O)n1C2)COC(=O)[C@]3(O)CC + CC(CO)NC(=O)c1cc(-c2ccc(Cl)cc2)nn(-c2cnn(C)c2)c1=O: active
- Nc1ncn(C2CC(O)C(CO)S2)c(=O)n1 (configuration not stated) + Cc1cncc(-c2nc(NCCc3c[nH]c4ccccc34)c3ncn(C(C)C)c3n2)c1: inactive
- Nc1ncn(C2CC(O)C(CO)S2)c(=O)n1 (configuration not stated) + Cc1ccccc1N=Nc1ccc(NC(=O)c2ccnn2C)c(C)c1: inactive
- O=C(C=Cn1cnc(-c2cc(C(F)(F)F)cc(C(F)(F)F)c2)n1)NNc1cnccn1 + Cc1cncc(-c2nc(NCCc3c[nH]c4ccccc34)c3ncn(C(C)C)c3n2)c1: inactive

Consider the additional compound presented here.
Which outcome did this test record for the compound CCN(c1cc(-c2ccc(CN3CCOCC3)cc2)cc(C(=O)NCc2c(C)cc(C)[nH]c2=O)c1C)C1CCOCC1 + Cc1cncc(-c2nc(NCCc3c[nH]c4ccccc34)c3ncn(C(C)C)c3n2)c1 ?
inactive
